# Cytotoxicity VERO Lab B annotations
- System: VERO cells
- ASSAY OVERVIEW: Cytotoxicity on VERO cells (MTT), anti-T. cruzi study
- RUN CONDITIONS: Lab B

SMILES INPUT	Cytotoxicity VERO Lab B
NNc1ncnc2sc3c(c12)CCCC3	9.0
Cc1ccc(C=NNc2ncnc3sc4c(c23)CCCC4)cc1	11.0
Fc1ccc(C=NNc2ncnc3sc4c(c23)CCCC4)cc1	6.0
FC(F)(F)c1ccccc1C=NNc1ncnc2sc3c(c12)CCCC3	3.0
C(=Cc1ccccc1)C=NNc1ncnc2sc3c(c12)CCCC3	7.0

###

- MEASURED TARGET: Trypanosoma cruzi (Tulahuen C4)
- ASSAY OVERVIEW: In vitro anti-T. cruzi activity (β-galactosidase CPRG colorimetric assay in VERO monolayer)
- Format: cell-based
- RUN CONDITIONS: Lab A
# T. cruzi IC50 Lab A annotations

COMPOUND	MEASURED TARGET	UNIT STRING	T. cruzi IC50 Lab A
FC(F)(F)c1ccccc1C=NNc1ncnc2sc3c(c12)CCCC3 [II-25]	Trypanosoma cruzi (Tulahuen C4)	µg/mL	0.5
O=[N+]([O-])c1ccccc1C=NNc1ncnc2sc3c(c12)CCCC3 [II-23]	Trypanosoma cruzi (Tulahuen C4)	µg/mL	1.1
NNc1ncnc2sc3c(c12)CCCC3 [PC]	Trypanosoma cruzi (Tulahuen C4)	µg/mL	4.1
C(=Cc1ccccc1)C=NNc1ncnc2sc3c(c12)CCCC3 [II-04]	Trypanosoma cruzi (Tulahuen C4)	µg/mL	0.4
CC(C)=NNc1ncnc2sc3c(c12)CCCC3 [II-44]	Trypanosoma cruzi (Tulahuen C4)	µg/mL	3.2
CC(C)(C)C=NNc1ncnc2sc3c(c12)CCCC3 [II-36]	Trypanosoma cruzi (Tulahuen C4)	µg/mL	5.3
Fc1ccc(C=NNc2ncnc3sc4c(c23)CCCC4)cc1 [II-26]	Trypanosoma cruzi (Tulahuen C4)	µg/mL	1.9

###

- MEASURED TARGET: Trypanosoma cruzi (Tulahuen C4)
- ASSAY OVERVIEW: In vitro anti-T. cruzi activity (β-galactosidase CPRG colorimetric assay in VERO monolayer)
- Assay type: cell-based
- RUN CONDITIONS: Lab B
Criterion: T. cruzi IC50 Lab B meeting or surpassing 4 µg/mL. Met: fulfilled. Not met: not fulfilled.

SMILES INPUT	MEASURED TARGET	DISCRETE LABEL
FC(F)(F)c1ccccc1C=NNc1ncnc2sc3c(c12)CCCC3	Trypanosoma cruzi (Tulahuen C4)	fulfilled
CC(C)=NNc1ncnc2sc3c(c12)CCCC3	Trypanosoma cruzi (Tulahuen C4)	not fulfilled
C(=Cc1ccccc1)C=NNc1ncnc2sc3c(c12)CCCC3	Trypanosoma cruzi (Tulahuen C4)	not fulfilled
NNc1ncnc2sc3c(c12)CCCC3	Trypanosoma cruzi (Tulahuen C4)	fulfilled
Fc1ccc(C=NNc2ncnc3sc4c(c23)CCCC4)cc1	Trypanosoma cruzi (Tulahuen C4)	fulfilled

###

- Tested on: non-replicating persistence Mycobacterium tuberculosis (NRP-TB)
- ASSAY OVERVIEW: Low oxygen recovery assay (LORA)
- Format: cell-based
- RUN CONDITIONS: Mycobacterium tuberculosis; anaerobic 10 days, 28 hour recovery; value in brackets
# MIC annotations

MOLECULE	MIC / µg/mL
COc1ccc(/C=N\Nc2ncnc3sc4c(c23)CCCC4)cc1 [II-10]	9.1
C/C(=N/Nc1ncnc2sc3c(c12)CCCC3)c1ccccc1 [II-47]	2.8
C(=N/Nc1ncnc2sc3c(c12)CCCC3)/c1ccco1 [II-18]	2.9
FC(F)(F)c1ccc(/C=N\Nc2ncnc3sc4c(c23)CCCC4)cc1 [II-24]	6

###

- System: axenic amastigotes of L. amazonensis (strain MHOM/BR/76/LTB-012)
- RUN CONDITIONS: Table 8b

SMILES INPUT	MEASURED TARGET	Selectivity Index
C/C(=N/Nc1ncnc2sc3c(c12)CCCC3)c1ccccc1	axenic amastigotes of L. amazonensis (strain MHOM/BR/76/LTB-012)	5.6
C(=N/Nc1ncnc2sc3c(c12)CCCC3)/c1ccc[nH]1	axenic amastigotes of L. amazonensis (strain MHOM/BR/76/LTB-012)	1.0
O=[N+]([O-])c1ccc(/C=N\Nc2ncnc3sc4c(c23)CCCC4)cc1	axenic amastigotes of L. amazonensis (strain MHOM/BR/76/LTB-012)	5.2
Brc1ccccc1/C=N\Nc1ncnc2sc3c(c12)CCCC3	axenic amastigotes of L. amazonensis (strain MHOM/BR/76/LTB-012)	5.8
C(=N/Nc1ncnc2sc3c(c12)CCCC3)/c1ccccc1	axenic amastigotes of L. amazonensis (strain MHOM/BR/76/LTB-012)	0.6
CCC(CC)=NNc1ncnc2sc3c(c12)CCCC3	axenic amastigotes of L. amazonensis (strain MHOM/BR/76/LTB-012)	8.5
COc1ccc(/C=N\Nc2ncnc3sc4c(c23)CCCC4)cc1	axenic amastigotes of L. amazonensis (strain MHOM/BR/76/LTB-012)	1.3

###

- Tested on: DU145 cells
- ASSAY OVERVIEW: Cell growth inhibition bioassay (sulforhodamine B)
- Format: cell-based, human
- RUN CONDITIONS: Homo sapiens, DU-145; 48 h, SRB; read-out: GI50 in indicated cell line: DU145
MEASURE: GI50 (µg/mL)

SMILES INPUT	SIGN	REPORTED
C(=N/Nc1ncnc2sc3c(c12)CCCC3)/c1ccc2ccccc2c1	=	8.7
O=[N+]([O-])c1ccc(/C=N\Nc2ncnc3sc4c(c23)CCCC4)cc1	>	62.5
COc1cc(/C=N\Nc2ncnc3sc4c(c23)CCCC4)cc(OC)c1OC	=	9
C/C(=N/Nc1ncnc2sc3c(c12)CCCC3)c1ccccc1	=	5.2
c1ccc(C(=NNc2ncnc3sc4c(c23)CCCC4)c2ccccc2)cc1	>	62.5
CC(C)(C)c1ccc(/C=N\Nc2ncnc3sc4c(c23)CCCC4)cc1	=	8
FC(F)(F)c1ccc(/C=N\Nc2ncnc3sc4c(c23)CCCC4)cc1	=	5.6
COc1ccc(/C=N\Nc2ncnc3sc4c(c23)CCCC4)cc1	=	7.8
C=CCOc1cc(/C=N\Nc2ncnc3sc4c(c23)CCCC4)cc(OCC=C)c1Br	<	0.98
CC(C)c1ccc(/C=N\Nc2ncnc3sc4c(c23)CCCC4)cc1	=	3.8
COc1cc(/C=N\Nc2ncnc3sc4c(c23)CCCC4)cc(OC)c1O	=	10.5
C(=N/Nc1ncnc2sc3c(c12)CCCC3)/c1ccc[nH]1	=	1.4
CCC(CC)=NNc1ncnc2sc3c(c12)CCCC3	=	4.3
C(=N/Nc1ncnc2sc3c(c12)CCCC3)/c1ccncc1	=	26

###

- ASSAY OVERVIEW: Cytotoxicity on VERO cells (MTT), anti-T. cruzi study
- RUN CONDITIONS: African green monkey, VERO cells, IC50 - VERO Cytotoxicity, Table 2

SMILES INPUT	IC50 [µg/mL]
C=CCOc1cc(OC)c(C(=O)/C=C/c2ccc(C)cc2)c(OCC=C)c1	77
COc1cc(/C=N\Nc2ncnc3sc4c(c23)CCCC4)cc(OC)c1O	124
C=CCOc1cc(OC)c(C(=O)/C=C/c2ccc(Cl)cc2)c(OCC=C)c1	4
C=CCOc1cc(OC)c(C(=O)/C=C/c2ccc(OC)cc2OC)c(OCC=C)c1	38
C=CCOc1cc(OC)c(C(=O)/C=C/c2cc(OCC=C)c(Br)c(OCC=C)c2)c(OCC=C)c1	52
C(=N/Nc1ncnc2sc3c(c12)CCCC3)/c1ccccc1	29
COc1cc(O)cc(O)c1C(=O)/C=C/c1ccc2c(c1)OCO2	8
C=CCOc1cc(OC)c(C(=O)/C=C/c2ccc(F)cc2)c(OCC=C)c1	5
C=CCOc1cc(OC)c(C(=O)/C=C/c2ccncc2)c(OCC=C)c1	1
C=CCOc1cc(OC)c(C(=O)/C=C/c2cc(OC)c(OC)c(OC)c2)c(OCC=C)c1	18
C=CCOc1cc(OC)c(C(=O)/C=C/c2ccc([N+](=O)[O-])cc2)c(OCC=C)c1	5
C=CCOc1cc(OC)c(C(=O)/C=C/c2ccc(C(F)(F)F)cc2)c(OCC=C)c1	3
C=CCOc1cc(OC)c(C(=O)/C=C/c2ccc3c(c2)OCO3)c(OCC=C)c1	49
Fc1ccccc1/C=N\Nc1ncnc2sc3c(c12)CCCC3	7
COc1ccc(/C=C/C(=O)c2c(O)cc(O)cc2OC)cc1	5
C=CCOc1cc(OC)c(C(=O)/C=C/c2ccc(OC)cc2)c(OCC=C)c1	48
C=CCOc1cc(OC)c(C(=O)/C=C/c2ccco2)c(OCC=C)c1	65
C=CCOc1cc(OC)c(C(=O)/C=C/c2ccccc2F)c(OCC=C)c1	6

###

- ASSAY OVERVIEW: Toxicity to peritoneal macrophages (Trypan Blue count)
- Format: cell-based, BALB/C mouse
- RUN CONDITIONS: BALB/C, mouse, Cytotoxicity Macrophages IC50
# IC50 at 48 h annotations

SMILES INPUT	IC50 at 48 h
C(=N/Nc1ncnc2sc3c(c12)CCCC3)/c1ccc2ccccc2c1	5.7 µM
Fc1ccccc1/C=N\Nc1ncnc2sc3c(c12)CCCC3	3.3 µM
C(=N/Nc1ncnc2sc3c(c12)CCCC3)/c1ccccc1	8.7 µM
COc1ccc(/C=N\Nc2ncnc3sc4c(c23)CCCC4)c(OC)c1	53 µM
CCC(CC)=NNc1ncnc2sc3c(c12)CCCC3	46.7 µM
C(=N/Nc1ncnc2sc3c(c12)CCCC3)/c1ccco1	0.7 µM
C(=N/Nc1ncnc2sc3c(c12)CCCC3)/c1ccccn1	2 µM
COc1cc(/C=N\Nc2ncnc3sc4c(c23)CCCC4)cc(OC)c1OC	3.6 µM
CCc1ccc(/C=N\Nc2ncnc3sc4c(c23)CCCC4)cc1	50.9 µM
Clc1ccc(/C=N\Nc2ncnc3sc4c(c23)CCCC4)cc1	48.8 µM
C=CCOc1cc(/C=N\Nc2ncnc3sc4c(c23)CCCC4)cc(OCC=C)c1Br	1.7 µM
C/C(=N/Nc1ncnc2sc3c(c12)CCCC3)c1ccccc1	51.3 µM
C(=N/Nc1ncnc2sc3c(c12)CCCC3)/c1ccncc1	47.7 µM
COc1cccc(/C=N\Nc2ncnc3sc4c(c23)CCCC4)c1	5.5 µM
COc1cc(/C=N\Nc2ncnc3sc4c(c23)CCCC4)cc(OC)c1O	46.4 µM
C(=N/Nc1ncnc2sc3c(c12)CCCC3)/c1cccc2ccccc12	6 µM
COc1ccc(/C=N\Nc2ncnc3sc4c(c23)CCCC4)cc1	21.6 µM
O=[N+]([O-])c1ccc(/C=N\Nc2ncnc3sc4c(c23)CCCC4)cc1	70.4 µM
c1ccc(C(=NNc2ncnc3sc4c(c23)CCCC4)c2ccccc2)cc1	59.8 µM
Brc1ccccc1/C=N\Nc1ncnc2sc3c(c12)CCCC3	2.9 µM
FC(F)(F)c1ccc(/C=N\Nc2ncnc3sc4c(c23)CCCC4)cc1	3.1 µM
